Answer each item with its documented MIC.
Test system: MRSA (ATCC 49476)
assay: MIC, broth microdilution
Format: cell-based, methicillin-resistant Staphylococcus aureus
condition.context: Staphylococcus aureus

The examples below pair each entry with its known result.
INSERT INTO results (structure_notation, value_measured) VALUES
  ('NS(=O)(=O)Nc1ccc(-n2nc(C(F)(F)F)cc2-c2ccc3cc4ccccc4cc3c2)cc1', '2 µg/mL'),
  ('Cc1ccc(-c2cc(C(F)(F)F)nn2-c2ccc(NS(N)(=O)=O)cc2)cc1', '4 µg/mL'),
  ('NS(=O)(=O)Nc1ccc(-n2nc(C(F)(F)F)cc2-c2ccc(-c3ccc(Br)cc3)cc2)cc1', '1 µg/mL'),
  ('Cc1ccc(-c2ccc(-c3cc(C(F)(F)F)nn3-c3ccc(NS(N)(=O)=O)cc3)cc2)cc1', '1 µg/mL');

Consider now this further compound.
**Q:** Identify measured MIC obtained with MRSA (ATCC 49476) for "NS(=O)(=O)Nc1ccc(-n2nc(C(F)(F)F)cc2-c2ccc(-c3ccccc3)cc2)cc1" .
**A:** 1 µg/mL
